- method_notes: In vitro metabolism in mouse liver microsomes
- reported_conditions: mouse, microsomes
- Experimental: The target product profile seeks to deliver JNK inhibitor as a once daily oral administration. To prioritize compounds for further development, in vitro metabolism of several CDD JNK inhibitors were determined to approximate the plasma half-life and the rate of metabolism of the compounds in vivo.
With a cut-off of 1 h, any half-life strictly below it is called Criterion met; any half-life meeting it or above is called Criterion not met.

mol_smiles=CCN(CC)Cc1cc(NC(=O)c2cc3c(-c4cnc5[nH]ccc5c4)cccc3s2)ccc1O group="Criterion not met"

Ask: half-life under 1 h? Item: COc1ccc(NC(=O)c2cc3c(-c4cnc5[nH]ccc5c4)cccc3s2)cc1C(=O)N1CCOCC1
Result: Criterion met

---

- assayed_system: JNK1 (Homo sapiens)
- Sequence (P45983 whole entry): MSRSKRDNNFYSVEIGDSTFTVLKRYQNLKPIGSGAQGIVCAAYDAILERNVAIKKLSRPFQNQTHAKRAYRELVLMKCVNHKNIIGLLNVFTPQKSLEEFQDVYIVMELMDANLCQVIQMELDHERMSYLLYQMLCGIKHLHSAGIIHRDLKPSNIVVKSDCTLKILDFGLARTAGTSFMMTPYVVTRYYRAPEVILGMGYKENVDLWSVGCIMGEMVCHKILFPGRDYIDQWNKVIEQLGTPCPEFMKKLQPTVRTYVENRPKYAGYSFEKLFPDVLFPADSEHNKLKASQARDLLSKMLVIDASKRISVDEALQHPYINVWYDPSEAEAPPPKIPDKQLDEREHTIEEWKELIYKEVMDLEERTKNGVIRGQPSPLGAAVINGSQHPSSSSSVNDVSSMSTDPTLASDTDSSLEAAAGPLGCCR
- method_notes: JNK1 kinase (intrinsic ATPase, Kinase-Glo) assay
- Type: biochemical
This section presents compounds with their documented pKd values.
Just the number, please; pKd means minus log10 of the concentration in mol/L.

Reference set (8 entries):
mol_smiles=O=C(Nc1ccc2c(c1)C(=O)NC2)c1cc2c(-c3cnc4[nH]ccc4c3)cccc2s1 measured_endpoint=pKd assay_result=8.82
mol_smiles=CCN(CC)Cc1cc(NC(=O)c2cc3c(-c4cnc5[nH]ccc5c4)cccc3s2)ccc1O measured_endpoint=pKd assay_result=9.05
mol_smiles=COc1ccc(NC(=O)c2cc3c(-c4cnc5[nH]ccc5c4)cccc3s2)cc1 measured_endpoint=pKd assay_result=8.11
mol_smiles=CN(C)C(=O)c1cc(NC(=O)c2cc3c(-c4cnc5[nH]ccc5c4)cccc3s2)ccc1OC(F)(F)F measured_endpoint=pKd assay_result=7.95
mol_smiles=CN(C)C(=O)c1cccc(NC(=O)c2cc3c(-c4cnc5[nH]ccc5c4)cccc3s2)c1 measured_endpoint=pKd assay_result=8.31
mol_smiles=O=C(Nc1ccc(F)cc1)c1ccn2ncc(-c3cnc4[nH]ccc4c3)c2c1 measured_endpoint=pKd assay_result=8.77
mol_smiles=CNCc1ccc(NC(=O)c2cc3c(-c4cnc5[nH]ccc5c4)cccc3s2)cc1 measured_endpoint=pKd assay_result=8.94
mol_smiles=CNC(=O)c1ccc(NC(=O)c2ccn3ncc(-c4cnc5[nH]ccc5c4)c3c2)cc1 measured_endpoint=pKd assay_result=9.70

Ask: Please look up its pKd: O=C(Nc1ccc(O)c(C(=O)N2CCCCC2)c1)c1cc2c(-c3cnc4[nH]ccc4c3)cccc2s1
Result: 9.54

Ask: Another compound: CNC(=O)c1cc2c(-c3cnc4[nH]ccc4c3)cccc2s1
Result: 8.43

Ask: Another compound: O=C(c1cc2c(-c3cnc4[nH]ccc4c3)cccc2s1)N1CCN(c2ccccc2)C(=O)C1
Result: 7.26

Ask: // query: O=C(Nc1cncnc1)c1cc2c(-c3cnc4[nH]ccc4c3)cccc2s1
Result: 8.63

Ask: Consider next the compound CNCc1ccc(NC(=O)c2ccn3ncc(-c4cnc(N)nc4)c3c2)cc1 in the same way.
Result: 8.53

Ask: // query: NC(=O)c1cccc(NC(=O)c2cc3c(-c4cnc5[nH]ccc5c4)cccc3s2)c1
Result: 8.79

Ask: Please answer likewise for CN(C)C(=O)c1ccc(O)c(NC(=O)c2cc3c(-c4cnc5[nH]ccc5c4)cccc3s2)c1
Result: 8.34

Ask: Likewise for O=C(Nc1ccccc1)c1cc2c(-c3cnc4[nH]ccc4c3)cccc2s1 ?
Result: 8.23

---

pKd listing for selected molecules.
- assayed_system: JNK2 (Homo sapiens, UniProt P45984)
- Sequence (P45984 whole entry): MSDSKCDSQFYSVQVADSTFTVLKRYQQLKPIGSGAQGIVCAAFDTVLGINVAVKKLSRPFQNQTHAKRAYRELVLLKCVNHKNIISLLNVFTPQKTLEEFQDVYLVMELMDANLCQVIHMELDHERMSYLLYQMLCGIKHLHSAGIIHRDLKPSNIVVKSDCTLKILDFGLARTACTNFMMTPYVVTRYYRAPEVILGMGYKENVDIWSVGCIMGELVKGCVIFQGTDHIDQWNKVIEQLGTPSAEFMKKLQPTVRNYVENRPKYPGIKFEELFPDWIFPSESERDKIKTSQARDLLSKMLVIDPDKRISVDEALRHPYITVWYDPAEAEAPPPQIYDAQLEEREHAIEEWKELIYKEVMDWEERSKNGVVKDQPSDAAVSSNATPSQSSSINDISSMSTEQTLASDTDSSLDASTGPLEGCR
- method_notes: JNK2 kinase (intrinsic ATPase, Kinase-Glo) assay
- Type: biochemical
- reported_conditions: Table 3a; read-out: Kd JNK2
# log scale: pKd equals minus log10 of the concentration in mol/L

mol_smiles=Cc1ccc(NC(=O)c2ccn3ncc(-c4cncc5ccccc45)c3c2)cc1 assay_result=8.90
mol_smiles=COc1ccc(NC(=O)c2cc3c(-c4cnc5[nH]ccc5c4)cccc3s2)cc1C(=O)N1CCN(C)CC1 assay_result=8.71
mol_smiles=COc1ccc(NC(=O)c2cc3c(-c4cnc5[nH]ccc5c4)cccc3s2)cc1 assay_result=7.81
mol_smiles=CNCc1ccc(NC(=O)c2ccn3ncc(-c4cnc(N)nc4)c3c2)cc1 assay_result=7.54
mol_smiles=O=C(Nc1ccc(O)c(C(=O)N2CCCCC2)c1)c1cc2c(-c3cnc4[nH]ccc4c3)cccc2s1 assay_result=8.74
mol_smiles=O=C(Nc1ccc(O)c(C(=O)N2CCC2)c1)c1cc2c(-c3cnc4[nH]ccc4c3)cccc2s1 assay_result=8.24

Ask: Dear colleague, I am looking for the recorded pKd of the following molecule: O=C(Nc1ccccc1)c1cc2c(-c3cnc4[nH]ccc4c3)cccc2s1
Result: 7.56

Ask: How about COc1ccc(NC(=O)c2cc3c(-c4cnc5[nH]ccc5c4)cccc3s2)cc1C(=O)N1CCOCC1 ?
Result: 8.81
